Values compiled from patent US20240239801A1.

- System: SW480 pERK
- protocol-description: Phospho-ERK inhibition, AlphaLISA SureFire Ultra p-ERK 1/2
- Assay type: cell-based, human
- applied-conditions: Table 3; lowest value of the pERK IC50 curve
Overview of reported SW480 (Ymin %) across a group of compounds:
Write the quantity with the unit trailing the number.

// SW480 (Ymin %) lookup, compound = O=S(=O)(Nc1ccc(F)c(Nc2ncnc3cnc(N4CC[C@H](F)C4)nc23)c1F)c1ccc2c(c1)CCO2 , result: 0%

// SW480 (Ymin %) lookup, compound = O=S(=O)(Nc1ccc(F)c(Nc2ncnc3cnc(N4CC[C@H](F)C4)nc23)c1F)c1ccc(Cl)cc1Cl , result: 9%

// SW480 (Ymin %) lookup, compound = O=S(=O)(Nc1ccc(F)c(Nc2ncnc3cnc(-n4cnc5ccccc54)nc23)c1F)c1ccc2c(c1)CCO2 , result: 19%

// SW480 (Ymin %) lookup, compound = COc1ccc(S(=O)(=O)Nc2ccc(F)c(Nc3ncnc4cnc(Oc5cccc(N)c5)nc34)c2F)cc1 , result: 8%

// SW480 (Ymin %) lookup, compound = O=S(=O)(Nc1ccc(F)c(Nc2ncnc3cnc(-n4cnc5ccccc54)nc23)c1F)c1ccc(Cl)cc1Cl , result: 1%

###

- experimental-target: BRAF (Homo sapiens)
- Construct: GST; purchased Millipore Sigma B4062-10UG
- Sequence (P15056 whole entry): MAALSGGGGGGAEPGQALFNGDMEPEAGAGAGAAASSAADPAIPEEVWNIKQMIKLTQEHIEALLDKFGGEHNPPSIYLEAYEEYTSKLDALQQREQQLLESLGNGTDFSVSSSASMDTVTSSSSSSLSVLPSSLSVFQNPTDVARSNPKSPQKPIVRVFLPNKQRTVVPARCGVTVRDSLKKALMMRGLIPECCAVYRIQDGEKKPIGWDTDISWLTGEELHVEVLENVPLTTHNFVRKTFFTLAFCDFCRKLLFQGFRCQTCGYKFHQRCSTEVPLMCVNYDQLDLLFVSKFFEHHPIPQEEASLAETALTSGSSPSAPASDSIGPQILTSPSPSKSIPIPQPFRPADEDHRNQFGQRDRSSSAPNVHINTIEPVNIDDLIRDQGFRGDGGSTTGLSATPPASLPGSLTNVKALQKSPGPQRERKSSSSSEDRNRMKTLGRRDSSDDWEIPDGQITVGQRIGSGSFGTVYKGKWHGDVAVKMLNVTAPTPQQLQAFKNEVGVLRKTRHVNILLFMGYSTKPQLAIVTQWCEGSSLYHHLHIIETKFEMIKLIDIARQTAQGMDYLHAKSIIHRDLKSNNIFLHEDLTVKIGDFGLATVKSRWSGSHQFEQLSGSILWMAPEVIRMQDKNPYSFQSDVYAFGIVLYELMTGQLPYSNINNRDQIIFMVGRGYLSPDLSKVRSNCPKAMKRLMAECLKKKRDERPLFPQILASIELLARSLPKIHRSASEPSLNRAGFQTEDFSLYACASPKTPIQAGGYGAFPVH
- protocol-description: BRAF kinase activity assay (ADP-Glo)
- Type: biochemical
- applied-conditions: Table 2
pIC50: −log10 of the molar value.
Overview of reported pIC50 across a group of compounds:

Past entries and their recorded results:
INSERT INTO assay_data (compound, experimental_target, measured_metric, readout_value) VALUES
  ('COc1ccc(S(=O)(=O)Nc2ccc(F)c(Nc3ncnc4cnc(SC)nc34)c2F)cc1 [Example 1]', 'BRAF (Homo sapiens)', 'pIC50', '< 8.00'),
  ('COc1ccc(S(=O)(=O)Nc2ccc(F)c(Nc3ncnc4cnc(SC)nc34)c2F)c(C)c1Cl [Example 92]', 'BRAF (Homo sapiens)', 'pIC50', '8.00 to 9.00'),
  ('CSc1ncc2ncnc(Nc3c(F)ccc(NS(=O)(=O)c4cccc(F)c4C)c3F)c2n1 [Example 90]', 'BRAF (Homo sapiens)', 'pIC50', '8.00 to 9.00');

Let us move to another entry and its pIC50.
// pIC50 lookup, compound = COc1ccc(S(=O)(=O)Nc2ccc(F)c(Nc3ncnc4cnc(SC)nc34)c2F)c(C)c1F [Example 91] , result: < 8.00

###

Overview of reported pIC50 across a group of compounds:
- experimental-target: BRAF (Homo sapiens)
- Construct: GST; purchased Millipore Sigma B4062-10UG
- protocol-description: BRAF kinase activity assay (ADP-Glo)
- Type: biochemical
- applied-conditions: BRAF biochemical kinase assay
pIC50: −log10 of the molar value.

INSERT INTO assay_data (compound, readout_value) VALUES
  ('O=S(=O)(Nc1cc(F)c(F)c(Nc2ncnc3cnc(-n4cnc5ccccc54)nc23)c1F)c1cccc(Cl)c1Cl [Example 160]', '8.00 to 9.00');

Let us move to another entry and its pIC50.
// pIC50 lookup, compound = O=S(=O)(Nc1cc(F)c(F)c(Nc2ncnc3cnc(-n4nnc5ccccc54)nc23)c1F)c1cccc(Cl)c1Cl [Example 161] , result: 8.00 to 9.00

###

Overview of reported pIC50 across a group of compounds:
- experimental-target: BRAF (Homo sapiens)
- Construct: GST; purchased Millipore Sigma B4062-10UG
- protocol-description: BRAF kinase activity assay (ADP-Glo)
- Format: biochemical
- applied-conditions: Table 3
pIC50: −log10 of the molar value.

INSERT INTO measurements (compound, experimental_target, readout_value) VALUES
  ('COc1ccc(S(=O)(=O)Nc2ccc(F)c(Nc3ncnc4cnc(-n5cnc6c(N)cccc65)nc34)c2F)c(C)c1Cl [Example 112]', 'BRAF (Homo sapiens)', '< 8.00'),
  ('Cc1c(F)cccc1S(=O)(=O)Nc1ccc(F)c(Nc2ncnc3cnc(-n4cnc5c(-c6cccnc6)cccc54)nc23)c1F [Example 114]', 'BRAF (Homo sapiens)', '8.00 to 9.00'),
  ('O=S(=O)(Nc1ccc(F)c(Nc2ncnc3cnc(-n4nnc5c(N6CCC7(CCCO7)CC6)cccc54)nc23)c1F)c1cccc(Cl)c1Cl [Example 138]', 'BRAF (Homo sapiens)', '< 8.00'),
  ('CCC1(O)CCN(c2cccc3c2ncn3-c2ncc3ncnc(Nc4c(F)ccc(NS(=O)(=O)c5cccc(C)c5Cl)c4F)c3n2)CC1 [Example 153]', 'BRAF (Homo sapiens)', '8.00 to 9.00'),
  ('O=S(=O)(Nc1ccc(F)c(Nc2ncnc3cnc(-n4cnc5ccccc54)nc23)c1F)c1cccc2c1OC(F)(F)O2 [Example 150]', 'BRAF (Homo sapiens)', '8.00 to 9.00'),
  ('Cc1c(F)cccc1S(=O)(=O)Nc1ccc(F)c(Nc2ncnc3cnc(-n4cnc5c(N)cccc54)nc23)c1F [Example 82]', 'BRAF (Homo sapiens)', '8.00 to 9.00'),
  ('O=S(=O)(Nc1ccc(F)c(Nc2ncnc3cnc(-n4cnc5ccccc54)nc23)c1F)c1ccc(Cl)cc1Cl [Example 63]', 'BRAF (Homo sapiens)', '8.00 to 9.00'),
  ('CN(C)C1CCN(c2cccc3c2ncn3-c2ncc3ncnc(Nc4c(F)ccc(NS(=O)(=O)c5cccc(Cl)c5Cl)c4F)c3n2)CC1 [Example 145]', 'BRAF (Homo sapiens)', '> 9.00'),
  ('CCC1(O)CCN(c2cccc3c2nnn3-c2ncc3ncnc(Nc4c(F)ccc(NS(=O)(=O)c5cccc(Cl)c5Cl)c4F)c3n2)CC1 [Example 136]', 'BRAF (Homo sapiens)', '8.00 to 9.00'),
  ('Cc1c(F)cccc1S(=O)(=O)Nc1ccc(F)c(Nc2ncnc3cnc(-n4nc(C(=O)N(C)Cc5ccncc5)c5ccccc54)nc23)c1F [Example 106]', 'BRAF (Homo sapiens)', '> 9.00');

// pIC50 lookup, compound = COc1ccc(S(=O)(=O)Nc2ccc(F)c(Nc3ncnc4cnc(-n5nnc6ccccc65)nc34)c2F)c(C)c1Cl [Example 117] , result: < 8.00

###

- Tested on: HCT116 pERK
- protocol-description: Phospho-ERK inhibition, AlphaLISA SureFire Ultra p-ERK 1/2
- Type: cell-based, human
- applied-conditions: Table 3; lowest value of the pERK IC50 curve
measured-metric: HCT116 (Ymin %)
Express the result in % but write the number alone.

Past entries and their recorded results:
INSERT INTO results (compound, readout_value) VALUES
  ('Cc1c(F)cccc1S(=O)(=O)Nc1ccc(F)c(Nc2ncnc3cnc(-n4cc(C(=O)N5CCC[C@H](O)C5)c5ccccc54)nc23)c1F [Example 103]', '−9.9'),
  ('COc1ccc(S(=O)(=O)Nc2ccc(F)c(Nc3ncnc4cnc(-n5cnc(C)c5C)nc34)c2F)cc1 [Example 40]', 12),
  ('O=S(=O)(Nc1ccc(F)c(Nc2ncnc3cnc(-n4cnc5ccccc54)nc23)c1F)c1ccc(Cl)cc1Cl [Example 63]', '−2'),
  ('O=S(=O)(Nc1ccc(F)c(Nc2ncnc3cnc(-n4cnc5ccccc54)nc23)c1F)N1CCCC1 [Example 77]', '−4');

// HCT116 (Ymin %) lookup, compound = COc1ccc(S(=O)(=O)Nc2ccc(F)c(Nc3ncnc4cnc(-n5cnc(C)c5C)nc34)c2F)c(F)c1 [Example 53] , result: 15

// HCT116 (Ymin %) lookup, compound = CCC1(O)CCN(c2cccc3c2ncn3-c2ncc3ncnc(Nc4c(F)ccc(NS(=O)(=O)c5cccc(C)c5Cl)c4F)c3n2)CC1 [Example 153] , result: −6

// HCT116 (Ymin %) lookup, compound = O=S(=O)(Nc1ccc(F)c(Nc2ncnc3cnc(-n4cnc5c(N6CCN(CCO)CC6)cccc54)nc23)c1F)c1cccc(Cl)c1Cl [Example 146] , result: −9

// HCT116 (Ymin %) lookup, compound = CO[C@@H]1CCN(S(=O)(=O)Nc2ccc(F)c(Nc3ncnc4cnc(-n5ccc6cccnc65)nc34)c2F)C1 [Example 71] , result: 8

// HCT116 (Ymin %) lookup, compound = COCC1CCN(S(=O)(=O)Nc2ccc(F)c(Nc3ncnc4cnc(-n5cnc6ccccc65)nc34)c2F)C1 (centres unmarked) [Example 70] , result: 0

// HCT116 (Ymin %) lookup, compound = COc1ccc(S(=O)(=O)Nc2ccc(F)c(Nc3ncnc4cnc(OC)nc34)c2F)cc1 [Example 46] , result: 8

// HCT116 (Ymin %) lookup, compound = Cc1c(F)cccc1S(=O)(=O)Nc1ccc(F)c(Nc2ncnc3cnc(-n4cc(C(=O)N5CCC(O)CC5)c5ccccc54)nc23)c1F [Example 102] , result: −9.5

// HCT116 (Ymin %) lookup, compound = Cc1c(F)cccc1S(=O)(=O)Nc1ccc(F)c(Nc2ncnc3cnc(-n4cnc5c(N)cccc54)nc23)c1F [Example 82] , result: −10

// HCT116 (Ymin %) lookup, compound = COc1ccc(S(=O)(=O)Nc2ccc(F)c(Nc3ncnc4cnc(-n5ccnc5)nc34)c2F)cc1 [Example 35] , result: −4

// HCT116 (Ymin %) lookup, compound = COc1ccc(S(=O)(=O)Nc2ccc(F)c(Nc3ncnc4cnc(N5CC[C@H](F)C5)nc34)c2F)cc1 [Example 31] , result: 13
